Reference source: patent US6376511B2

Tested on: trypanosome isolate KETRI 243As103
Assay: Antitrypanosomal activity, trypanosome isolates grown as blood forms in HMI-18
Assay type: cell-based, Trypanosoma
Settings: KETRI 243As103, after 48 h, 20% horse serum; succinate
Method: Compounds were tested vs. trypanosome isolates grown as blood forms in HMI-18 (Hirumi H., Hirumi, K. 1989. Continuous Cuitivation of Trypanosoma brucei bloodstream forms in a medium containing a low concentration of serum portein without feeder cell layers. J. Parasitol. 75:985-989) containing 20% horse serum.
Here, each record is paired with measured IC50 data.

{"molecule": "COc1cc(NC(C)CCCN)c2nccc(C)c2c1Oc1ccc(Cl)c(Cl)c1 (single isomer, unassigned; (-)) [Y, succinate]", "IC50, µM": 17.5}
{"molecule": "COc1cc(NC(C)CCCN)c2nccc(C)c2c1Oc1ccc(Cl)c(Cl)c1 (single isomer, unassigned; (+)) [X, succinate]", "IC50, µM": 36}
